# System: DB
# assay_text: cells;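 further: cell viability readout used to quantify suppression of DB cell line proliferation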
# Format: functional, cell-based
# test_conditions: Homo sapiens
# Description: SANGER: Inhibition of human DB cell growth in a cell viability assay.
Recorded IC50, one value per entry.
Answer in nM, number only, no unit symbol.

CC(=O)c1c(C)c2cnc(Nc3ccc(N4CCNCC4)cn3)nc2n(C2CCCC2)c1=O [PALBOCICLIB]	1070
C/C=C(/C)C(=O)O[C@H]1C(C)=C2[C@H]([C@@H]1OC(=O)CCCCCCC)[C@@](C)(OC(C)=O)C[C@H](OC(=O)CCC)[C@@]1(O)[C@H]2OC(=O)[C@@]1(C)O [THAPSIGARGIN]	2.55
CCNC(=O)c1noc(-c2cc(C(C)C)c(O)cc2O)c1-c1ccc(CN2CCOCC2)cc1 [LUMINESPIB]	229

Could you now consider this next compound?
Exercise: Which IC50 is listed for Cn1c(=O)n(-c2ccc(C(C)(C)C#N)cc2)c2c3cc(-c4cnc5ccccc5c4)ccc3ncc21 [DACTOLISIB] ?
Solution: 27.4
